# TEST TARGET: Rac GTPase-activating protein 1 (Homo sapiens)
# PROCEDURE TEXT: blockers of MgcRacGAP-driven Rac1 GTP hydrolysis – biochemical, ADP Hunter fluorescence, primary and confirmatory, confirmation (AID 624330);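 also: fluorescence reports GDP produced by GAP-driven GTP hydrolysis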
# EXPERIMENTAL CONDITIONS: MgcRacGAP-stimulated Rac1 GTP hydrolysis, at 30 µM, hits give high values, GST-tagged Rac1 F28L mutant substrate
In all, about 340,000 compounds went through this assay and about 2,100 (0.62%) were called active. These entries were drawn from the full list. Measured potencies and affinities stand elsewhere.
Collected inhibition values appear next to each entry.

* CCSCCOC(=O)C1=C(C)NC(=O)NC1c1ccccc1 (stereo not given) | 2.5% (inactive)
* COc1cc(NC(=O)Cn2cnc(S(=O)(=O)N3CCCCC3)c2)cc(OC)c1OC | 1.97% (inactive)
* Cc1cc2nc(-c3ccccc3)cc(=O)n2[nH]1 | 14.4% (inactive)
* COc1cc(CNc2ccc(N3CCCC3)cc2)ccc1OCc1ccccc1F | 19.3% (inactive)
* Cc1c2cnn(CC(=O)NCCCN3CCCCC3C)c(=O)c2c(C)n1Cc1ccccc1 (stereo not given) | 8.86% (inactive)

Suppose we examine the compound `N#CCCN1CCn2c1nc1ccccc12` ; what inhibition value has been reported?
7.51% (inactive)

Suppose we examine the compound `COc1cccc(CNC2CCCCCCC2)c1OC` ; what inhibition value has been reported?
20.3% (inactive)

Suppose we examine the compound `COc1cccc(/C=N/NC(=O)CSc2cccc3cccnc23)c1` ; what inhibition value has been reported?
5.24% (inactive)

Suppose we examine the compound `COc1cccc(CNc2ccc(S(N)(=O)=O)cc2)c1OC` ; what inhibition value has been reported?
-0.0267% (inactive)

Suppose we examine the compound `O=S(=O)(c1ccc(Cl)cc1)N1CCCCCC1` ; what inhibition value has been reported?
4.19% (inactive)

Suppose we examine the compound CC(=O)N1N=C(c2ccccc2)CC1c1ccc2c(c1)OCO2 (stereo not given) ; what inhibition value has been reported?
13.6% (inactive)

---

Collected inhibition values appear next to each entry.
# TEST TARGET: Rac GTPase-activating protein 1 (Homo sapiens) (UniProt Q9H0H5)
# Sequence (Q9H0H5 whole entry, looked up): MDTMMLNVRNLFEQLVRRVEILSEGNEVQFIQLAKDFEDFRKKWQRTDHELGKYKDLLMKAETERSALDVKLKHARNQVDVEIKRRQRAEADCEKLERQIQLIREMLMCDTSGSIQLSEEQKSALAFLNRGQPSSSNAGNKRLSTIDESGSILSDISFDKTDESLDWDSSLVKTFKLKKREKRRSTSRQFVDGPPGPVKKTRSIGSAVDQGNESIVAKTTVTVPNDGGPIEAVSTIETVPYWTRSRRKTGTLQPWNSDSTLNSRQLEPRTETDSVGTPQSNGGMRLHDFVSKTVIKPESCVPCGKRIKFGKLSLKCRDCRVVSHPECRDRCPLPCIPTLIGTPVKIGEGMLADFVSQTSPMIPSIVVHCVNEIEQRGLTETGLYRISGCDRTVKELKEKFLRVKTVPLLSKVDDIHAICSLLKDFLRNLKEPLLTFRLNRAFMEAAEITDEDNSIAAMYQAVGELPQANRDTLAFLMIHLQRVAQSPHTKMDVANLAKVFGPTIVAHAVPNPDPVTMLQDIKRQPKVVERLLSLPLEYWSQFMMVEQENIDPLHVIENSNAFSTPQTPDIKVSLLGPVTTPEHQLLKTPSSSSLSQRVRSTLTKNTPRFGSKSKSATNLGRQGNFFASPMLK
# PROCEDURE TEXT: blockers of MgcRacGAP-driven Rac1 GTP hydrolysis – biochemical, ADP Hunter fluorescence, primary and confirmatory, confirmation (AID 624330);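 also: fluorescence reports GDP produced by GAP-driven GTP hydrolysis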
# EXPERIMENTAL CONDITIONS: MgcRacGAP-stimulated Rac1 GTP hydrolysis, at 30 µM, hits give high values, GST-tagged Rac1 F28L mutant substrate
Screen size: about 340,000 compounds; about 2,100 (0.62%) were called active. These entries were drawn from the full list. Potency and affinity values are given separately.
// return numeric value only (unit: %, not printed)

Field: example entries. Status: answers known.
* COc1ccc(/C=N/N=C2\CC3CCC2(C)C3(C)C)cc1O (stereo unspecified) | 5.9
* O=C(N/N=C/c1ccncc1)NC12CC3CC(CC(C3)C1)C2 | 10.9
* COc1ccc(/C=N/NC(=O)C2C3CCCCC32)cc1OC (stereo unspecified) | 10.4
* CC1CN(C(=O)CCNC(=O)c2ccc(Br)cc2)CC(C)O1 (stereo unspecified) | 3.26

Suppose we examine the compound `CC(=O)c1ccc2c(c1)N(C)c1ccccc1S2` ; what inhibition value has been reported?
18.2

Suppose we examine the compound `COc1cc(/C=N/NC(=O)NC23CC4CC(CC(C4)C2)C3)ccc1OCC(N)=O` ; what inhibition value has been reported?
7.72

Suppose we examine the compound `COc1ccc(C=NNC(=O)NN=Cc2ccc(OC)c(OC)c2)cc1OC` ; what inhibition value has been reported?
3.42

Suppose we examine the compound `CCOC(=O)Nc1ccc2c(c1)N(C(=O)CN(C)C)c1ccccc1S2` ; what inhibition value has been reported?
-22.2

Suppose we examine the compound `O=C(N/N=C/c1ccc(O)cc1O)NC12CC3CC(CC(C3)C1)C2` ; what inhibition value has been reported?
15

Suppose we examine the compound COc1ccc(/C=C2/S/C(=N/N=C3\CC4CCC3(C)C4(C)C)NC2=O)cc1 (stereo unspecified) ; what inhibition value has been reported?
7.33

Suppose we examine the compound `C=CC(=O)N1c2ccccc2Sc2ccc(NC(=O)OCC)cc21` ; what inhibition value has been reported?
6.2
